TARGET_OR_SYSTEM: Quinolone resistance protein NorA (Staphylococcus aureus)
Sequence (whole entry): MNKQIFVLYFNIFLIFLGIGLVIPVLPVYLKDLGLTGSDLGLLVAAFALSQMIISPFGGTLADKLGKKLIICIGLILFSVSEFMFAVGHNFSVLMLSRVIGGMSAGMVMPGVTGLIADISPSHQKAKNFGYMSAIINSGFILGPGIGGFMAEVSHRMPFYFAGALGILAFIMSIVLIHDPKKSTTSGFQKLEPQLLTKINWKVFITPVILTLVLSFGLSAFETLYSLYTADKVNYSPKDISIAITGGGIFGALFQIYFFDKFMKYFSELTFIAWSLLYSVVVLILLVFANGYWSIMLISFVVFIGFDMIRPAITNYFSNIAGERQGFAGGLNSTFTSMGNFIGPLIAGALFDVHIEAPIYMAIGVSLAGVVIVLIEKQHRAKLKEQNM
TEST_DESCRIPTION: Inhibition of NorA in fluoroquinolone-resistant Staphylococcus aureus 1199B assessed as potentiation of 4 ug/ml of ciprofloxacin MIC at 100 ug/ml after 24 hrs by microdilution method
READOUT: Activity (µg/mL)
Field format: number, assumed µg/mL, no unit text.

Here are 3 compounds together with their reported answers.
OB(O)c1cncc(Oc2cccnc2)c1 : 16
CC(C)(O)C(C)(C)OB(OC(C)(C)C(C)(C)O)c1ccc(OCc2ccccc2)nc1 : 64
CCOc1ccc(B(O)O)cn1 : 4

With those in mind, consider the next compound.
API: value(readout=Activity, system=Quinolone resistance protein NorA (Staphylococcus aureus)) for record OB(O)c1ccc(Oc2ccc(Cl)nc2)nc1
4

---

Measured growth inhibition (GI) of individual entries
Test system: Staphylococcus aureus
TEST_DESCRIPTION: Toxicity in fluoroquinolone-resistant Staphylococcus aureus 1199B expressing NorA at 100 ug/ml after 24 hrs by microdilution method
Format: organism-based

growth inhibition (GI) for Cn1nccc1B1OC(C)(C)C(C)(C)O1 ?
< 90%

growth inhibition (GI) for CC(C)(O)C(C)(C)OB(OC(C)(C)C(C)(C)O)c1ccc(NCc2ccccc2)nc1 ?
< 90%

growth inhibition (GI) for CC(C)Nc1ccc(B(O)O)cc1 ?
< 90%

growth inhibition (GI) for CC(C)(O)C(C)(C)OB(OC(C)(C)C(C)(C)O)c1ccncc1F ?
< 90%

growth inhibition (GI) for CCc1ccc(B(OC(C)(C)C(C)(C)O)OC(C)(C)C(C)(C)O)cc1 ?
< 90%

growth inhibition (GI) for O[B-](O)(O)c1cccnc1.[Na+] ?
< 90%

growth inhibition (GI) for OB(O)c1ccc(Cl)nc1 ?
< 90%

growth inhibition (GI) for OB(O)c1cccnc1OCc1ccccc1 ?
< 90%

growth inhibition (GI) for OB(O)c1ccc(Oc2cccnc2)nc1 ?
< 90%

---

TARGET_OR_SYSTEM: Quinolone resistance protein NorA (Staphylococcus aureus)
TEST_DESCRIPTION: Inhibition of NorA in fluoroquinolone-resistant Staphylococcus aureus 1199B assessed as potentiation of 4 ug/ml of ciprofloxacin MIC at 100 ug/ml after 24 hrs by microdilution method
READOUT: Activity

CCOC(=O)Nc1ncc(B2OC(C)(C)C(C)(C)O2)s1 : > 128 µg/mL

Activity for Cc1cccc(C(=O)O)c1Cl ?
> 128 µg/mL

Activity for CSc1ncccc1B(OC(C)(C)C(C)(C)O)OC(C)(C)C(C)(C)O ?
> 128 µg/mL

Activity for OB(O)c1ccccc1 ?
32 µg/mL

Activity for OB(O)c1ccc(Oc2cncc(Cl)c2)nc1 ?
8 µg/mL

Activity for OB(O)c1ccc(Cl)nc1 ?
8 µg/mL

Activity for O=Cc1ccc(B(O)O)cc1C(F)(F)F ?
16 µg/mL

Activity for O=C(O)c1ccccc1Cl ?
64 µg/mL

Activity for COc1nccc(B(OC(C)(C)C(C)(C)O)OC(C)(C)C(C)(C)O)c1Cl ?
32 µg/mL

Activity for O=C(O)c1ccccc1Br ?
> 128 µg/mL
